// provenance: ChEMBL document CHEMBL1138245

Assay: Ratio of drug level in brain to plasma in Sprague-Dawley rat at 3 mg/kg, ip after 0.5 hr
Format: ADME, organism-based
Set-up: dose 3 mg/kg, route intraperitoneal
Conditions: read-out: BPR
observation type: Kp at 0.5 h

{"smiles str": "NCCc1cn(S(=O)(=O)c2c(Cl)nc3sccn23)c2ccccc12", "observation type": "Kp at 0.5 h", "measurement": 0.17}

* * *

Target: 5-hydroxytryptamine receptor 6 (Homo sapiens, UniProt P50406)
Sequence (P50406 whole entry): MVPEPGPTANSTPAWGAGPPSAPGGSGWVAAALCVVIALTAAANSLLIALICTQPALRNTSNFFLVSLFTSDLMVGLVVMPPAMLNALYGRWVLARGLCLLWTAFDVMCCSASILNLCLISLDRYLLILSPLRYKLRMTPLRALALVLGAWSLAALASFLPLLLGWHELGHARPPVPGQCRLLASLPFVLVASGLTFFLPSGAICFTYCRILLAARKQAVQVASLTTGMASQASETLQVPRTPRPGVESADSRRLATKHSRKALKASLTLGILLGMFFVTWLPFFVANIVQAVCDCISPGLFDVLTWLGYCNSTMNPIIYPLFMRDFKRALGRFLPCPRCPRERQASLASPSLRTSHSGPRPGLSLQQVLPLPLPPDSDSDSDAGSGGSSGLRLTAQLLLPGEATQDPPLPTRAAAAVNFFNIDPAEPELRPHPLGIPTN
Assay: Agonist activity at human 5HT6 receptor expressed in HeLa cells assessed as cAMP production
Assay type: functional, cell-based
pEC50: −log10 of the molar value.
Threshold rule: pEC50 greater than or equal to 7 is T; below that, F.

{"smiles str": "NCCc1cn(S(=O)(=O)c2ccc(Br)s2)c2ccccc12", "classification": "T"}
{"smiles str": "NCCc1cn(S(=O)(=O)c2ccc(Cl)s2)c2ccccc12", "classification": "F"}
{"smiles str": "NCCc1cn(S(=O)(=O)c2ccc(Cl)cc2)c2ccccc12", "classification": "F"}
{"smiles str": "Cc1ccc(S(=O)(=O)n2cc(CCN)c3ccccc32)cc1", "classification": "F"}
